B1: tRNA (parent)
chain: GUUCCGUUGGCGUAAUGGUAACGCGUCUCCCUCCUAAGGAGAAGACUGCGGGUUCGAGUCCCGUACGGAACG

# Variants of: B1
# method-summary: yeast fitness relative to wild type (ratio to wild type); higher = fitter; tRNA-Arg(CCU), competitive growth, 37 C, YPD
Variants at the floor of the assay were thinned out.
Catalogue of yeast fitness values
API note: the answer field is a bare number with no unit suffix.

Recorded results for 4 variants are shown here.
{"variant-name": "G41A C62U A69U", "yeast fitness": 0.619}
{"variant-name": "U26C G41C", "yeast fitness": 0.947}
{"variant-name": "G23A A36U A40C G52A C61G", "yeast fitness": 0.639}
{"variant-name": "C30G C31G G38C C46G", "yeast fitness": 0.768}

Q: Return the recorded yeast fitness value; entry: U8C U13A A65G
A: 0.716

Q: Return the recorded yeast fitness value; entry: U19A C66G
A: 0.686

Q: Return the recorded yeast fitness value; entry: A14U G39C
A: 0.507

Q: Return the recorded yeast fitness value; entry: U7C A42G U54C
A: 0.549

Origin of values: the RNAGym collection of RNA variant scans (doi:10.1126/science.aae0568)
